- system: PRMT5/MEP50 (Homo sapiens (Human))
- Sequence (O14744 other isoform, or with tags, fused parts or gaps): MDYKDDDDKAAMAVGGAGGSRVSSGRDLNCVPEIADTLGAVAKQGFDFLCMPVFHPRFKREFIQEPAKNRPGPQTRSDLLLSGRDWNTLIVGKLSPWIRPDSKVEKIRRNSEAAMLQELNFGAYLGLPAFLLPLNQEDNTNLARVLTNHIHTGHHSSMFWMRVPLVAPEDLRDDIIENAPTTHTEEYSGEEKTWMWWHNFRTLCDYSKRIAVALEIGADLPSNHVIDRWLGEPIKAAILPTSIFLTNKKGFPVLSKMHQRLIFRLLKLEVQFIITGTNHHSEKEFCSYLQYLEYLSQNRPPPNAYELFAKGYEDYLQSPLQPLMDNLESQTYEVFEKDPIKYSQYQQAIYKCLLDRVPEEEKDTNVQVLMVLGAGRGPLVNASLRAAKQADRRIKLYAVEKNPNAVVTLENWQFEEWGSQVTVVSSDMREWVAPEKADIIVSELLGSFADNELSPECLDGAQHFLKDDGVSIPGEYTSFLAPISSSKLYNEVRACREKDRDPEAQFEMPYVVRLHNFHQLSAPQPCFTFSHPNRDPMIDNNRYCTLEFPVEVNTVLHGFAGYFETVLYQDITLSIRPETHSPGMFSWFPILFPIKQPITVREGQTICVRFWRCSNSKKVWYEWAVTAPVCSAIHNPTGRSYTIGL
- Sequence (Q9BQA1 other isoform, or with tags, fused parts or gaps partner): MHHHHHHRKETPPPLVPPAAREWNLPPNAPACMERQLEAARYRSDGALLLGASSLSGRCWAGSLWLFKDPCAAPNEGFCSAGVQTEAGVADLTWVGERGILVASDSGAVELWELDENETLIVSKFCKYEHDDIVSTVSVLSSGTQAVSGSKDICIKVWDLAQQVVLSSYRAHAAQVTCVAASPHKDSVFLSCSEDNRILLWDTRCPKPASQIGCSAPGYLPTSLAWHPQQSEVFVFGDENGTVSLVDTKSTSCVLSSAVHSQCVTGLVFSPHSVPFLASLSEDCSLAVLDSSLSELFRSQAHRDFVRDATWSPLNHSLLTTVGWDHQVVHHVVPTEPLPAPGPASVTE
- protocol details: PRMT5 Biochemical Assay (PRMT5/MEP50 enzyme assay on peptide substrate, 3H-SAM Flashplate)
pIC50: −log10 of the molar value.

compound: [2H]C1([2H])Cc2ccccc2C([2H])([2H])N1C[C@H](O)CNC(=O)COc1cccc2cccnc12 [Compound 269]
system: PRMT5/MEP50 (Homo sapiens (Human))
pIC50: 6.00 to 7.00

* * *

- system: PRMT5/MEP50 (Homo sapiens (Human))
- protocol details: PRMT5 Biochemical Assay (PRMT5/MEP50 enzyme assay on peptide substrate, 3H-SAM Flashplate)
- measurement conditions: PRMT5 biochemical assay; read-out: Biochemical IC50
pIC50: −log10 of the molar value.
Measured pIC50 of individual entries

compound: O=C(COc1cccc2cncnc12)NCC(O)CN1CCc2ccccc2C1 (centres unmarked)
pIC50: > 7.00

compound: CN(C)S(=O)(=O)c1c(OCC(=O)NC[C@@H](O)CN2CCc3ccccc3C2)cccc1N1CCN(C2CC2)CC1
pIC50: > 7.00

compound: O=C(COc1ccccc1-c1cc[nH]n1)NCC(O)CN1CCc2ccccc2C1 (centres unmarked)
pIC50: > 7.00

compound: Cc1ccc2[nH]c(CCC(=O)NC[C@@H](O)CN3CCc4ccccc4C3)nc2c1
pIC50: 6.00 to 7.00

compound: CN1CC(CN(C)S(=O)(=O)c2ccccc2OCC(=O)NC[C@@H](O)CN2CCc3ccccc3C2)C1
pIC50: > 7.00

compound: CC(Oc1ccccc1[C@@H]1CCCNC1)C(=O)NC[C@@H](O)CN1CCc2ccccc2C1 (some centres unmarked)
pIC50: 6.00 to 7.00

compound: Cn1cncc1CCNC(=O)c1cccc(OCC(=O)NC[C@@H](O)CN2CCc3ccccc3C2)c1
pIC50: 6.00 to 7.00

compound: O=C(Cc1ccc2c(c1)OCO2)NC[C@H](O)CN1CCc2ccccc2C1
pIC50: 6.00 to 7.00

These data points were gathered from patent US9745291B2.
